- System: EKVX NSCLC
- experimentNotes: NCI-60 one-dose screen, 48 h (100 = growth as untreated, 0 = no growth, -100 = all killed)
- testSettings: 10 µM unless noted
About 83,000 compounds went through this panel and 20% of them were active in at least one assay; those are over-represented in the sample as a whole.

sampleSmiles | growth / %
NCCCCCNc1noc(Cc2c[nH]c3cc(Br)ccc23)n1 | 33
COc1ccc(C(=O)/C=C/Nc2cc(-c3ccccc3)nn2-c2ccccc2)cc1 | 89.4
C=CN(C(=O)N1CCN(c2cc3c(cc2F)c(=O)c(C(=O)O)cn3C2CC2)CC1)c1nc(-c2ccc(C)cc2)cs1 | 24.2
CC(C)(C#N)c1cc(C(=O)Nc2cc(Nc3ncccc3-c3ncnc4nc[nH]c34)ccc2F)cc(C(F)(F)F)c1 | 62.8
